// provenance: the supplement of paper PMC7796163

# Target Under Test: CYP3A4 (UniProt P08684)
# Sequence (P08684 whole entry): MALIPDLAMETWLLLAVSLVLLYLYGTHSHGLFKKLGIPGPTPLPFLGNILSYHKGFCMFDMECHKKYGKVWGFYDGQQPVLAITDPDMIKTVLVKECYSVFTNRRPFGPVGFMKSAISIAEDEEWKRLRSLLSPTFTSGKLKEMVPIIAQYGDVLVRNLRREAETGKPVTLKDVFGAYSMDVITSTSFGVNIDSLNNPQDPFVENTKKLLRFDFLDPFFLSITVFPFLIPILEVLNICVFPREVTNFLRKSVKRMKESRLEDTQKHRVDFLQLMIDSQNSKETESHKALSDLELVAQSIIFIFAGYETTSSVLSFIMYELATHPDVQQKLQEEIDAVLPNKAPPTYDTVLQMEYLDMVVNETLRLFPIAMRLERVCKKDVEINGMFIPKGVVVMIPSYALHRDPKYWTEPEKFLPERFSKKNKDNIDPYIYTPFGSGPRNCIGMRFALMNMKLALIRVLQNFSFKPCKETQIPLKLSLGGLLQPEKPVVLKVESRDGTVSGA
# Method Summary: CYP enzyme activity (probe substrate metabolite formation) fold change vs solvent control; higher = stronger induction of CYP activity
# Applied Conditions: 10 µM; treatment time 24 h; HepaRG
Observed Property: CYP enzyme activity
Answer using only a numeral; do not append any unit.

Query: # get_value(readout='CYP enzyme activity', item= c1ccc2c(c1)ccc1ccc3ccccc3c12 [benzo[c]phenanthrene] )
Reply: 0.999

Query: Recorded CYP enzyme activity of c1ccc2c(c1)-c1cccc3c1c-2cc1ccccc13 [benzo[b]fluoranthene] , please.
Reply: 0.723

Query: Which CYP enzyme activity value belongs to c1ccc2c(c1)-c1cccc3cccc-2c13 ?
Reply: 1.03

Query: Would you kindly share the measured CYP enzyme activity for c1ccc2cc3c(cc2c1)-c1cccc2cccc-3c12 [benzo[k]fluoranthene] ?
Reply: 0.732

Query: What does the record list as CYP enzyme activity for c1ccc2c(c1)cc1ccc3cccc4c5ccccc5c2c1c34 [dibenzo[a,l]pyrene] ?
Reply: 0.471

Query: Any idea what CYP enzyme activity was measured for c1ccc2c(c1)cc1ccc3cccc4ccc2c1c34 [benzo[a]pyrene] ?
Reply: 0.762

Query: Reported CYP enzyme activity, molecule c1ccc2c3c(ccc2c1)-c1cccc2cccc-3c12 [benzo[j]fluoranthene] : ____
Reply: 0.715

Query: Which CYP enzyme activity is reported for this molecule? c1cc2ccc3cccc4ccc(c1)c2c34
Reply: 1.21

Query: What CYP enzyme activity value was documented for this molecule, c1ccc2cc3c(ccc4ccccc43)cc2c1 [benzo[a]anthracene] ?
Reply: 0.855

Query: Sample c1ccc2c(c1)ccc1ccccc12 — what was its CYP enzyme activity?
Reply: 0.994
